Settings: 298.15 K; 101.33 kPa; Liquid; Vibrating tube method
Experimental endpoint: mass density (kg/m3)
# output: bare number, implied unit kg/m3

>  <Molecule>
C=C1CC[C@H]2C[C@@H]1C2(C)C [(1S,5S)-6,6-dimethyl-2-methylenebicyclo[3.1.1]heptane]

>  <mass density, kg/m3>
866.84

$$$$
>  <Molecule>
C=C(C)[C@H]1CC=C(C)CC1 [(R)-1-methyl-4-(1-methylethenyl)cyclohexene]

>  <mass density, kg/m3>
837.31

$$$$
>  <Molecule>
CCO

>  <mass density, kg/m3>
785.24

$$$$

mass density lookup needed for CC1=CC[C@H]2C[C@@H]1C2(C)C [(S)-2-pinene] , thanks.
853.88
